Test system: MRSA COL (MB5393)
Experiment: TarO Inhibitor/β-Lactam Synergy Assay (growth, OD600)
Assay type: cell-based, Staphylococcus aureus
Settings: in combination with 8 μg/mL dicloxacillin (DCX)
Lab note: anything with MITC95 TarO inhibitor + 8 μg/mL DCX; Bacteria: SA_MB5393 at or over 5 µM counts as Fulfilled; the rest go in Not fulfilled.

>>> df
                                   compound          label
0  C[C@H]1[C@@H](c2cc(F)cc(C(F)(F)F)c2)OC(=O)N1C(=O)NCc1ccccc1S(C)(=O)=O      Fulfilled
1  C[C@H]1[C@@H](c2cccc(OC(F)(F)F)c2)OC(=O)N1C(=O)CCc1cncc2ccccc12  Not fulfilled
2  C[C@H]1[C@@H](c2cccc(OC(F)(F)F)c2)OC(=O)N1C(=O)CCc1cccc2ccccc12  Not fulfilled
3  C[C@H]1[C@@H](c2cc(F)cc(C(F)(F)F)c2)OC(=O)N1C(=O)NCc1ccccc1CN(C)C      Fulfilled
4  O=C(NCc1cncc2ccccc12)N1C(=O)O[C@H](c2cc(F)cc(C(F)(F)F)c2)[C@@H]1CCO      Fulfilled
5  C[C@H]1[C@@H](c2cc(C(F)(F)F)cc(C(F)(F)F)c2)OC(=O)N1C(=O)NCc1cccc2nccnc12  Not fulfilled
6  C[C@H]1[C@@H](c2cc(C(F)(F)F)cc(C(F)(F)F)c2)OC(=O)N1C(=O)COc1cccc2ccccc12  Not fulfilled

---

System: MRSA COL (MB5393)
Experiment: TarO Inhibitor/β-Lactam Synergy Assay (growth, OD600)
Format: cell-based, Staphylococcus aureus
Settings: in combination with 8 μg/mL dicloxacillin (DCX)
reported.property: MITC95 TarO inhibitor + 8 μg/mL DCX; Bacteria: SA_MB5393 (µM)

>>> df
                                   compound  number
0  C[C@H]1[C@@H](c2cc(F)cc(C(F)(F)F)c2)OC(=O)N1C(=O)NCc1cncc2ccccc12    0.39
1  C[C@H]1[C@@H](c2cc(C(F)(F)F)cc(C(F)(F)F)c2)OC(=O)N1C(=O)NCc1ncccc1Br    4.69
2  C[C@H]1[C@@H](c2cc(F)cc(Br)c2)OC(=O)N1C(=O)NCc1cncc2ccccc12    1.38
3  C[C@H]1[C@@H](c2cccc(Br)n2)OC(=O)N1C(=O)CCc1cccc2ccccc12     100

---

System: MRSA COL (MB5393)
Experiment: TarO Inhibitor/β-Lactam Synergy Assay (growth, OD600)
Assay type: cell-based, Staphylococcus aureus
Settings: in combination with 8 μg/mL dicloxacillin (DCX)
Some compounds, each annotated with its measured MITC95 TarO inhibitor + 8 μg/mL DCX; Bacteria: SA_MB5393.
reported.property: MITC95 TarO inhibitor + 8 μg/mL DCX; Bacteria: SA_MB5393 (µM)

>>> print(df.to_string())
                                   compound  number
0  C[C@H]1[C@@H](c2cc(F)cc(C(F)(F)F)c2)OC(=O)N1C(=O)NCc1cnc2sccn12 [Example 47]      50
1  C[C@H]1[C@@H](c2cc(F)cc(C3CC3)c2)OC(=O)N1C(=O)NCc1cncc2ccccc12 [Example 26]    0.99
2  Cc1cnc(F)c(CNC(=O)N2C(=O)O[C@H](c3cc(C(F)(F)F)cc(C(F)(F)F)c3)[C@@H]2C)c1 [Example 35]    0.98
3  C[C@H]1[C@@H](c2cc(C(F)(F)F)cc(C(F)(F)F)c2)OC(=O)N1C(=O)NCc1cccc2ccnn12 [Example 2]    0.21
4  COc1cc(C(F)(F)F)cc([C@H]2OC(=O)N(C(=O)NCc3cncc4cccnc34)[C@H]2CO)n1 [Example 64]    4.38
5  COc1cccc([C@H]2OC(=O)N(C(=O)CCc3cccc4ccccc34)[C@H]2C)n1 [Example 81]  100.00

Data provenance is patent US11141410B2.
